# assay.summary: Pharmacokinetic study in pigs (plasma concentration by LC-MS)
# Format: in vivo, pig
# experimental.setup: both sexes, Swiss large white, pig, plasma, intravenous, 4 mg kg^−1, read-out: volume of distribution (VD)
Starred links: 1 amine or outer side, 2 acyl side, 3 side chain; linkers in the order of their positions; H or OH if unused. Positions of bridges follow the written chain, without caps; N, C: chain ends. Non-standard residues stand in square brackets, D forms with d. Residues, ends and D or L forms follow the SMILES beside them. TATA = O=C(CC[*:1])N1CN(C(=O)CC[*:2])CN(C(=O)CC[*:3])C1; Phe(4-F) = N[C@@H](Cc1ccc(F)cc1)C(=O)O; β3hR = N=C(N)NCCC[C@H](N)CC(=O)O
recorded.metric: Vd (L/kg)
Write the value in L/kg as a bare number.

Ask | May I ask what Vd has been recorded for CC(C)C[C@@H]1NC(=O)[C@H](CCC(N)=O)NC(=O)[C@H](Cc2c[nH]cn2)NC(=O)[C@@H]2CSCCC(=O)N3CN(CN(C3)C(=O)CCSC[C@H](NC(=O)[C@@H](CO)NC(=O)[C@H](N)CCCNC(=N)N)C(=O)N[C@@H](Cc3ccc(F)cc3)C(=O)N[C@@H](CCCNC(=N)N)C(=O)N[C@@H](CC(C)C)C(=O)N3CCC[C@H]3C(=O)N2)C(=O)CCSC[C@@H](C(N)=O)NC(=O)C[C@H](CCCNC(=N)N)NC1=O [FXII900] (H-[dR][dS]C[Phe(4-F)]RLPCHQL[β3hR]C-NH2; linker 3-8-13 via TATA) ?
Reply | 0.61

====

# assay.summary: Plasma stability assay (residual FXIIa inhibitory activity after plasma incubation)
# Type: in vitro ADME, human
# experimental.setup: human, plasma, t1/2 in plasma
Starred links: 1 amine or outer side, 2 acyl side, 3 side chain; linkers in the order of their positions; H or OH if unused. Positions of bridges follow the written chain, without caps; N, C: chain ends. Non-standard residues stand in square brackets, D forms with d. Residues, ends and D or L forms follow the SMILES beside them. TATA = O=C(CC[*:1])N1CN(C(=O)CC[*:2])CN(C(=O)CC[*:3])C1; Phe(4-F) = N[C@@H](Cc1ccc(F)cc1)C(=O)O; β3hR = N=C(N)NCCC[C@H](N)CC(=O)O
recorded.metric: half-life at 10 μM

Ask | // query half-life at 10 μM value for entry CC(C)C[C@@H]1NC(=O)[C@H](CCC(N)=O)NC(=O)[C@H](Cc2c[nH]cn2)NC(=O)[C@@H]2CSCCC(=O)N3CN(CN(C3)C(=O)CCSC[C@H](NC(=O)[C@@H](CO)NC(=O)[C@H](N)CCCNC(=N)N)C(=O)N[C@@H](Cc3ccc(F)cc3)C(=O)N[C@@H](CCCNC(=N)N)C(=O)N[C@@H](CC(C)C)C(=O)N3CCC[C@H]3C(=O)N2)C(=O)CCSC[C@@H](C(N)=O)NC(=O)C[C@H](CCCNC(=N)N)NC1=O [FXII900] (H-[dR][dS]C[Phe(4-F)]RLPCHQL[β3hR]C-NH2; linker 3-8-13 via TATA)
Reply | > 120 h

====

# assay.summary: Pharmacokinetic study in mice (plasma concentration by LC-MS)
# Assay type: in vivo, mouse
# experimental.setup: male, C57BL/6J, mouse, plasma, sc, 5 mg/kg, 5 mg kg^−1 subcutaneous, 3 min, read-out: Plasma conc.
Starred links: 1 amine or outer side, 2 acyl side, 3 side chain; linkers in the order of their positions; H or OH if unused. Positions of bridges follow the written chain, without caps; N, C: chain ends. Non-standard residues stand in square brackets, D forms with d. Residues, ends and D or L forms follow the SMILES beside them. TATA = O=C(CC[*:1])N1CN(C(=O)CC[*:2])CN(C(=O)CC[*:3])C1; Phe(4-F) = N[C@@H](Cc1ccc(F)cc1)C(=O)O; β3hR = N=C(N)NCCC[C@H](N)CC(=O)O
recorded.metric: level at time molar at 0.05 h

Ask | Record request: level at time molar at 0.05 h value, item CC(C)C[C@@H]1NC(=O)[C@H](CCC(N)=O)NC(=O)[C@H](Cc2c[nH]cn2)NC(=O)[C@@H]2CSCCC(=O)N3CN(CN(C3)C(=O)CCSC[C@H](NC(=O)[C@@H](CO)NC(=O)[C@H](N)CCCNC(=N)N)C(=O)N[C@@H](Cc3ccc(F)cc3)C(=O)N[C@@H](CCCNC(=N)N)C(=O)N[C@@H](CC(C)C)C(=O)N3CCC[C@H]3C(=O)N2)C(=O)CCSC[C@@H](C(N)=O)NC(=O)C[C@H](CCCNC(=N)N)NC1=O [FXII900] (H-[dR][dS]C[Phe(4-F)]RLPCHQL[β3hR]C-NH2; linker 3-8-13 via TATA)
Reply | ~1000 nM

====

# assay.summary: Pharmacokinetic study in rabbits (plasma concentration by LC-MS)
# Format: in vivo, rabbit
# experimental.setup: female, New Zealand White, rabbit, plasma, iv, 3.7 mg/kg, intravenous administration, 5 min, individual rabbits and analyses, read-out: Plasma conc.
Starred links: 1 amine or outer side, 2 acyl side, 3 side chain; linkers in the order of their positions; H or OH if unused. Positions of bridges follow the written chain, without caps; N, C: chain ends. Non-standard residues stand in square brackets, D forms with d. Residues, ends and D or L forms follow the SMILES beside them. TATA = O=C(CC[*:1])N1CN(C(=O)CC[*:2])CN(C(=O)CC[*:3])C1; Phe(4-F) = N[C@@H](Cc1ccc(F)cc1)C(=O)O; β3hR = N=C(N)NCCC[C@H](N)CC(=O)O
recorded.metric: level at time molar at 5 min (nM)
Could you give me the number in nM? Just the number is fine.

Ask | Look up level at time molar at 5 min for this compound: CC(C)C[C@@H]1NC(=O)[C@H](CCC(N)=O)NC(=O)[C@H](Cc2c[nH]cn2)NC(=O)[C@@H]2CSCCC(=O)N3CN(CN(C3)C(=O)CCSC[C@H](NC(=O)[C@@H](CO)NC(=O)[C@H](N)CCCNC(=N)N)C(=O)N[C@@H](Cc3ccc(F)cc3)C(=O)N[C@@H](CCCNC(=N)N)C(=O)N[C@@H](CC(C)C)C(=O)N3CCC[C@H]3C(=O)N2)C(=O)CCSC[C@@H](C(N)=O)NC(=O)C[C@H](CCCNC(=N)N)NC1=O [FXII900] (H-[dR][dS]C[Phe(4-F)]RLPCHQL[β3hR]C-NH2; linker 3-8-13 via TATA)
Reply | 2610

====

# assay.summary: Pharmacokinetic study in pigs (plasma concentration by LC-MS)
# Format: in vivo, pig
# experimental.setup: both sexes, Swiss large white, pig, plasma, intravenous, 4 mg kg^−1, read-out: maximal concentration
Starred links: 1 amine or outer side, 2 acyl side, 3 side chain; linkers in the order of their positions; H or OH if unused. Positions of bridges follow the written chain, without caps; N, C: chain ends. Non-standard residues stand in square brackets, D forms with d. Residues, ends and D or L forms follow the SMILES beside them. TATA = O=C(CC[*:1])N1CN(C(=O)CC[*:2])CN(C(=O)CC[*:3])C1; Phe(4-F) = N[C@@H](Cc1ccc(F)cc1)C(=O)O; β3hR = N=C(N)NCCC[C@H](N)CC(=O)O
recorded.metric: Cmax

Ask | Which Cmax value belongs to CC(C)C[C@@H]1NC(=O)[C@H](CCC(N)=O)NC(=O)[C@H](Cc2c[nH]cn2)NC(=O)[C@@H]2CSCCC(=O)N3CN(CN(C3)C(=O)CCSC[C@H](NC(=O)[C@@H](CO)NC(=O)[C@H](N)CCCNC(=N)N)C(=O)N[C@@H](Cc3ccc(F)cc3)C(=O)N[C@@H](CCCNC(=N)N)C(=O)N[C@@H](CC(C)C)C(=O)N3CCC[C@H]3C(=O)N2)C(=O)CCSC[C@@H](C(N)=O)NC(=O)C[C@H](CCCNC(=N)N)NC1=O [FXII900] (H-[dR][dS]C[Phe(4-F)]RLPCHQL[β3hR]C-NH2; linker 3-8-13 via TATA) ?
Reply | ~7 µM

====

# assay.summary: Pharmacokinetic study in rabbits (plasma concentration by LC-MS)
# Type: in vivo, rabbit
# experimental.setup: female, New Zealand White, rabbit, plasma, iv, 3.7 mg/kg, intravenous administration, 40 min, individual rabbits and analyses, read-out: Plasma conc.
Starred links: 1 amine or outer side, 2 acyl side, 3 side chain; linkers in the order of their positions; H or OH if unused. Positions of bridges follow the written chain, without caps; N, C: chain ends. Non-standard residues stand in square brackets, D forms with d. Residues, ends and D or L forms follow the SMILES beside them. TATA = O=C(CC[*:1])N1CN(C(=O)CC[*:2])CN(C(=O)CC[*:3])C1; Phe(4-F) = N[C@@H](Cc1ccc(F)cc1)C(=O)O; β3hR = N=C(N)NCCC[C@H](N)CC(=O)O
recorded.metric: level at time molar at 40 min (nM)
Could you give me the number in nM? Just the number is fine.

Ask | Reported level at time molar at 40 min, molecule CC(C)C[C@@H]1NC(=O)[C@H](CCC(N)=O)NC(=O)[C@H](Cc2c[nH]cn2)NC(=O)[C@@H]2CSCCC(=O)N3CN(CN(C3)C(=O)CCSC[C@H](NC(=O)[C@@H](CO)NC(=O)[C@H](N)CCCNC(=N)N)C(=O)N[C@@H](Cc3ccc(F)cc3)C(=O)N[C@@H](CCCNC(=N)N)C(=O)N[C@@H](CC(C)C)C(=O)N3CCC[C@H]3C(=O)N2)C(=O)CCSC[C@@H](C(N)=O)NC(=O)C[C@H](CCCNC(=N)N)NC1=O [FXII900] (H-[dR][dS]C[Phe(4-F)]RLPCHQL[β3hR]C-NH2; linker 3-8-13 via TATA) : ____
Reply | 503
